tested on: MDA-MB-435; test: NCI tumour cell line growth inhibition, 48 h
quantity measured: TGI

                                   compound  quantity_measured    result
0     N=C(N)SCc1cccc2c(=O)cc(-c3ccccc3)oc12                TGI   21.5 µM
1  O=C(c1cccc(C(=O)c2ccc3c4c(cccc24)C(=O)N(c2ccccc2)C3=O)c1)c1ccc2c3c(cccc13)C(=O)N(c1ccccc1)C2=O                TGI  > 100 µM
2  C=CC(C)CCC(C/C=C(\C)CCC=C(C)C)C(=C)CCCC(C)C (centres undefined)                TGI  > 100 µM
3  C=CCN1C(=O)CS/C1=N/NC(=O)C(O)(c1ccccc1)c1ccccc1                TGI   > 10 µM
4  COC(=O)[C@@H]1C[C@H]([Se]c2ccccc2)CN1C(=O)OCc1ccccc1                TGI     65 µM
5  CN(C)C(=O)Oc1ccc(-c2cn3cc(NC(=O)c4ccccc4)ccc3n2)cc1                TGI  > 100 µM
6  C=CC[C@@H]1C(=O)[C@@]2(O[Si](C(C)C)(C(C)C)C(C)C)CC[C@@H]1C[C@H]2NC(=O)OCC(Cl)(Cl)Cl                TGI  > 100 µM
7  CC(C)C1OC(/C=C/c2ccccc2)OCC1(C)C (centres undefined)                TGI  > 100 µM
8  CCCCCC/C=C\CCCCCCCCCC1=CC(=O)C=C(OC)C1=O                TGI   13.8 µM

----------
system: HCT-15 colon; experiment: NCI tumour cell line growth inhibition, 48 h
quantity measured: TGI

In [3]: df
Out[3]:
                                   compound  quantity_measured     result
0  COc1cc(/C=C/c2cc(/C=C/c3ccc(O)c(OC)c3)oc(=O)c2)ccc1O                TGI  > 34.4 µM
1  O=c1cc(-c2ccccc2)oc2cc(OCCSCCCCCCCCCCSCCOc3ccc4c(=O)cc(-c5ccccc5)oc4c3)ccc12                TGI   > 100 µM
2  Cc1cc(OCC(=O)N/N=C/C(Br)=C/c2ccccc2)nc(SCC(=O)N/N=C/C(Br)=C/c2ccccc2)n1                TGI   > 100 µM
3  Cn1c2cc(O)cc(O)c2c(=O)c2c([N+](=O)[O-])cccc21                TGI   > 100 µM
4  CC1=C[S+](c2ccccc2)c2cccc3cc4ccccc4c1c23 (stereo not given)                TGI    8.44 µM

----------
Reported TGI values follow for various molecules
tested on: A498 renal; test: NCI tumour cell line growth inhibition, 48 h
quantity measured: TGI

>>> df
                                    molecule  quantity_measured    result
 0  CN(C[C@@H]1COCCO1)S(=O)(=O)Nc1ccc2ccc3ncc(-c4cnn(C)c4)cc3c(=O)c2c1                TGI   2.18 µM
 1                 NNc1[nH]c(=S)[nH]c1C(N)=O                TGI  > 100 µM
 2  COc1ccc(-c2csc(-c3cc(Cl)cc(Cl)c3Cl)n2)cc1                TGI  > 100 µM
 3  COc1cnc2c(c1)C(=O)c1c-2n(CCCN2CCCC2)c(=O)c2cc(F)ccc12                TGI   1.65 µM
 4            O=C(O)c1ccccc1/C=N/NC1=NCCCCN1                TGI  > 100 µM
 5      O=C(/C=C/c1ccc(O)c(O)c1O)OCCc1ccccc1                TGI  > 100 µM
 6  CC(C)C1OC(/C=C/c2ccccc2)OCC1(C)C (stereo unspecified)                TGI   63.7 µM
 7  COc1ccc(-c2c(-c3cc(OC)c4c(c3)OCO4)noc2N)cc1                TGI  0.342 µM
 8  O=[N+]([O-])c1ccc(Sc2c3ccccc3nc3ccccc23)nc1                TGI   32.8 µM
 9  COc1ccc(C(=O)c2cc3c(N)c(C(=O)Nc4cccc(Cl)c4C)sc3nc2C)cc1                TGI  0.558 µM
10  CCC1CCc2nc3sc(C(=O)Nc4ccccc4C)c(N)c3cc2C1 (stereo unspecified)                TGI  > 100 µM
